This collection of values is drawn from ChEMBL document CHEMBL5724914.

# Experimental Context: human gut metagenome, 24 h, 2 µM; further: call rule not given here

Compound	Bacterial Biotransformation
CCS(=O)(=O)CCn1c([N+](=O)[O-])cnc1C	Compound metabolized
Cc1cc2c(s1)Nc1ccccc1N=C2N1CCN(C)CC1	Compound NOT metabolized
CC#CCn1c(N2CCC[C@@H](N)C2)nc2c1c(=O)n(Cc1nc(C)c3ccccc3n1)c(=O)n2C	Compound NOT metabolized
CC#C[C@]1(O)CC[C@H]2[C@@H]3CCC4=CC(=O)CCC4=C3[C@@H](c3ccc(N(C)C)cc3)C[C@@]21C	Compound NOT metabolized
COc1cc2nc(N3CCN(C(=O)C4CCCO4)CC3)nc(N)c2cc1OC (centres undefined)	Compound NOT metabolized
CN(C)CCOC(c1ccc(Cl)cc1)c1ccccn1.O=C(O)/C=C\C(=O)O (centres undefined) [CARBINOXAMINE MALEATE]	Compound NOT metabolized
CNNCc1ccc(C(=O)NC(C)C)cc1	Compound NOT metabolized
CCOC(=O)[C@H](CCc1ccccc1)N[C@@H](C)C(=O)N1Cc2ccccc2C[C@H]1C(=O)O	Compound NOT metabolized
CN1CCC(=C2c3ccccc3CC(=O)c3sccc32)CC1.O=C(O)/C=C/C(=O)O [KETOTIFEN FUMARATE]	Compound NOT metabolized
CCN(CC)CCOC(=O)C1(C2CCCCC2)CCCCC1	Compound NOT metabolized
O=C(O)c1cc(/N=N/c2ccc(S(=O)(=O)Nc3ccccn3)cc2)ccc1O	Compound metabolized
N=C(N)NC(=O)Cc1c(Cl)cccc1Cl	Compound NOT metabolized
CC[C@@]1(O)C(=O)OCc2c1cc1n(c2=O)Cc2cc3c(CN(C)C)c(O)ccc3nc2-1	Compound NOT metabolized
Clc1cccc(Cl)c1N=C1NCCN1	Compound NOT metabolized
O=C1CN2Cc3c(ccc(Cl)c3Cl)N=C2N1 [ANAGRELIDE]	Compound NOT metabolized
CCCCCNC(=N)N/N=C/c1c[nH]c2ccc(OC)cc12.O=C(O)/C=C\C(=O)O [TEGASEROD MALEATE]	Compound NOT metabolized
CC(CCc1ccccc1)NCC(O)c1ccc(O)c(C(N)=O)c1 (centres undefined)	Compound NOT metabolized
C[C@]12C=CC(=O)C=C1CC[C@@H]1[C@@H]2C(=O)C[C@@]2(C)[C@H]1CC[C@]2(O)C(=O)CO	Compound metabolized
CC(=O)OCC(=O)[C@@]1(OC(C)=O)[C@@H](C)C[C@H]2[C@@H]3C[C@H](F)C4=CC(=O)C=C[C@]4(C)[C@@]3(F)[C@@H](O)C[C@@]21C [DIFLORASONE DIACETATE]	Compound metabolized
COc1ccc(Cc2nccc3cc(OC)c(OC)cc23)cc1OC	Compound NOT metabolized
CN(C)CCC=C1c2ccccc2COc2ccccc21 [DOXEPIN]	Compound NOT metabolized
COc1ccccc1OCCNCC(O)COc1cccc2[nH]c3ccccc3c12 (centres undefined)	Compound NOT metabolized
CCOC(=O)[C@H](CCc1ccccc1)N[C@@H](C)C(=O)N1CCC[C@H]1C(=O)O.O=C(O)/C=C\C(=O)O [ENALAPRIL MALEATE]	Compound NOT metabolized
CC[C@H](C)C(=O)O[C@H]1CCC=C2C=C[C@H](C)[C@H](CC[C@@H]3C[C@@H](O)CC(=O)O3)[C@H]21	Compound NOT metabolized
Nc1nnc(-c2cccc(Cl)c2Cl)c(N)n1	Compound NOT metabolized
CC(=O)Oc1ccc(C(c2ccc(OC(C)=O)cc2)c2ccccn2)cc1	Compound metabolized
Br.COc1ccc2c(c1)[C@]13CCCC[C@@H]1[C@H](C2)N(C)CC3.O [DEXTROMETHORPHAN HYDROBROMIDE]	Compound NOT metabolized
CCc1cccc2c3c([nH]c12)C(CC)(CC(=O)O)OCC3 (centres undefined)	Compound metabolized
Nc1nc(NC2CC2)c2ncn([C@H]3C=C[C@@H](CO)C3)c2n1.Nc1nc(NC2CC2)c2ncn([C@H]3C=C[C@@H](CO)C3)c2n1.O=S(=O)(O)O [ABACAVIR SULFATE]	Compound NOT metabolized
CSc1ccc2c(c1)C(N1CCN(C)CC1)Cc1ccccc1S2.O=C(O)/C=C\C(=O)O (centres undefined)	Compound NOT metabolized
CCN(CC)C(=O)C1(c2ccccc2)CC1CN (centres undefined)	Compound NOT metabolized
COc1ccc2cc([C@H](C)C(=O)O)ccc2c1	Compound NOT metabolized
CCN(C)C(=O)Oc1cccc([C@H](C)N(C)C)c1.O=C(O)C(O)C(O)C(=O)O [RIVASTIGMINE TARTRATE]	Compound NOT metabolized
CN1[C@@H]2CC[C@H]1C[C@@H](OC(=O)c1c[nH]c3ccccc13)C2	Compound NOT metabolized

* * *

# Protocol Notes: The drug is tested on WLS-006 corresponding to human gut metagenome with ENA study accession number: PRJEB37062 and ENA sample accession number: ERS12561741 for biotransformation under anaerobic condition. The drug concentrations were measured over 9 timepoints collected between 0 and 24 hours of incubation by liquid-chromatography-coupled mass spectrometry (LC–MS)
# Experimental Context: 2 µM
Endpoint: Bacterial Biotransformation

Compound	Result
CN1CCN2c3ccccc3Cc3ccccc3C2C1 (centres undefined) [MIANSERIN]	Compound NOT metabolized
CC(C)(C)N.CCC[C@H](N[C@@H](C)C(=O)N1[C@H](C(=O)O)C[C@@H]2CCCC[C@@H]21)C(=O)OCC [PERINDOPRIL ERBUMINE]	Compound metabolized
CN1[C@@H]2CC[C@H]1C[C@@H](OC(=O)c1c[nH]c3ccccc13)C2 [TROPISETRON]	Compound NOT metabolized
OC(c1cc(C(F)(F)F)nc2c(C(F)(F)F)cccc12)C1CCCCN1 (centres undefined) [MEFLOQUINE]	Compound metabolized

* * *

# Protocol Notes: The drug is tested on WLS-098 corresponding to human gut metagenome with ENA study accession number: PRJEB37062 and ENA sample accession number: ERS12561754 for biotransformation under anaerobic condition. The drug concentrations were measured over 9 timepoints collected between 0 and 24 hours of incubation by liquid-chromatography-coupled mass spectrometry (LC–MS)
# Experimental Context: 2 µM
Endpoint: Bacterial Biotransformation

Compound	Result
COc1ccc(CN2CCNCC2)c(OC)c1OC.Cl.Cl [TRIMETAZIDINE DIHYDROCHLORIDE]	Compound NOT metabolized
CCOC(=O)[C@H](CCc1ccccc1)N[C@@H](C)C(=O)N1CCC[C@H]1C(=O)O.O=C(O)/C=C\C(=O)O [ENALAPRIL MALEATE]	Compound NOT metabolized
CC[C@@]1(O)C(=O)OCc2c1cc1n(c2=O)Cc2cc3c(CN(C)C)c(O)ccc3nc2-1	Compound NOT metabolized

* * *

# Protocol Notes: The drug is tested on WLS-010 corresponding to human gut metagenome with ENA study accession number: PRJEB37062 and ENA sample accession number: ERS12561743 for biotransformation under anaerobic condition. The drug concentrations were measured over 9 timepoints collected between 0 and 24 hours of incubation by liquid-chromatography-coupled mass spectrometry (LC–MS)
# Experimental Context: 2 µM

Molecule	Bacterial Biotransformation
C#C[C@]1(OC(C)=O)CC[C@H]2[C@@H]3CCC4=C/C(=N/O)CC[C@@H]4[C@H]3CC[C@@]21CC [NORGESTIMATE]	Compound metabolized
Br.COc1ccc2c(c1)[C@]13CCCC[C@@H]1[C@H](C2)N(C)CC3.O [DEXTROMETHORPHAN HYDROBROMIDE]	Compound metabolized

* * *

# Experimental Context: human gut metagenome, 24 h, 2 µM
Endpoint: Bacterial Biotransformation

Compound	Endpoint	Result
CC(C)NCC(O)COc1ccc(CC(N)=O)cc1 (stereo unspecified)	Bacterial Biotransformation	Compound NOT metabolized
CC(=O)OCC(=O)[C@@]1(OC(C)=O)[C@@H](C)C[C@H]2[C@@H]3C[C@H](F)C4=CC(=O)C=C[C@]4(C)[C@@]3(F)[C@@H](O)C[C@@]21C [DIFLORASONE DIACETATE]	Bacterial Biotransformation	Compound metabolized
CCN(C(C)=O)c1cccc(-c2ccnc3c(C#N)cnn23)c1	Bacterial Biotransformation	Compound metabolized
CC#C[C@]1(O)CC[C@H]2[C@@H]3CCC4=CC(=O)CCC4=C3[C@@H](c3ccc(N(C)C)cc3)C[C@@]21C	Bacterial Biotransformation	Compound metabolized
O=C(O)CCC(=O)O.O=C(O[C@H]1CN2CCC1CC2)N1CCc2ccccc2[C@@H]1c1ccccc1 [SOLIFENACIN SUCCINATE]	Bacterial Biotransformation	Compound metabolized
CC(=O)O[C@H]1C(=O)[C@@]2(C)[C@H]([C@H](OC(=O)c3ccccc3)[C@]3(O)C[C@H](OC(=O)[C@H](O)[C@@H](NC(=O)c4ccccc4)c4ccccc4)C(C)=C1C3(C)C)[C@]1(OC(C)=O)CO[C@@H]1C[C@@H]2O	Bacterial Biotransformation	Compound NOT metabolized
CC(C)c1c(CN(C)C(C)Cc2ccccc2)n(C)n(-c2ccccc2)c1=O (stereo unspecified)	Bacterial Biotransformation	Compound metabolized
CN1CCN(C2=Nc3ccccc3Oc3ccc(Cl)cc32)CC1.O=C(O)CCC(=O)O [LOXAPINE SUCCINATE]	Bacterial Biotransformation	Compound NOT metabolized
CC(C)(C)NCC(O)c1cc(Cl)c(N)c(Cl)c1 (stereo unspecified)	Bacterial Biotransformation	Compound NOT metabolized
COc1ccc(/C=C/C(=O)Nc2ccccc2C(=O)O)cc1OC	Bacterial Biotransformation	Compound NOT metabolized
CC[C@H](C)C(=O)O[C@H]1CCC=C2C=C[C@H](C)[C@H](CC[C@@H]3C[C@@H](O)CC(=O)O3)[C@H]21	Bacterial Biotransformation	Compound NOT metabolized
CCCC(C)(COC(N)=O)COC(=O)NC(C)C (stereo unspecified)	Bacterial Biotransformation	Compound NOT metabolized
CCOc1ccc2nc(S(N)(=O)=O)sc2c1 [ETHOXZOLAMIDE]	Bacterial Biotransformation	Compound NOT metabolized
COc1ccccc1OCCNCC(O)COc1cccc2[nH]c3ccccc3c12 (stereo unspecified)	Bacterial Biotransformation	Compound metabolized
CC(C)c1nc(N(C)S(C)(=O)=O)nc(-c2ccc(F)cc2)c1/C=C/[C@@H](O)C[C@@H](O)CC(=O)[O-].CC(C)c1nc(N(C)S(C)(=O)=O)nc(-c2ccc(F)cc2)c1/C=C/[C@@H](O)C[C@@H](O)CC(=O)[O-].[Ca+2]	Bacterial Biotransformation	Compound NOT metabolized
Cc1ccccc1C(OCCN(C)C)c1ccccc1.O=C(O)CC(O)(CC(=O)O)C(=O)O (stereo unspecified) [ORPHENADRINE CITRATE]	Bacterial Biotransformation	Compound NOT metabolized
CC(NC(C)(C)C)C(=O)c1cccc(Cl)c1 (stereo unspecified)	Bacterial Biotransformation	Compound NOT metabolized
CC(CCc1ccccc1)NCC(O)c1ccc(O)c(C(N)=O)c1 (stereo unspecified)	Bacterial Biotransformation	Compound metabolized
C[C@@H](c1ncncc1F)[C@](O)(Cn1cncn1)c1ccc(F)cc1F	Bacterial Biotransformation	Compound metabolized
CN(CCOc1ccc(CC2SC(=O)NC2=O)cc1)c1ccccn1.O=C(O)/C=C\C(=O)O (stereo unspecified) [ROSIGLITAZONE MALEATE]	Bacterial Biotransformation	Compound metabolized
OC(c1cc(C(F)(F)F)nc2c(C(F)(F)F)cccc12)C1CCCCN1 (stereo unspecified)	Bacterial Biotransformation	Compound metabolized
CC(C)(C)NC(=O)[C@H]1CC[C@H]2[C@@H]3CC[C@H]4NC(=O)C=C[C@]4(C)[C@H]3CC[C@]12C [FINASTERIDE]	Bacterial Biotransformation	Compound metabolized
O=C([O-])C[C@H](O)C[C@H](O)/C=C/c1c(C2CC2)nc2ccccc2c1-c1ccc(F)cc1.O=C([O-])C[C@H](O)C[C@H](O)/C=C/c1c(C2CC2)nc2ccccc2c1-c1ccc(F)cc1.[Ca+2]	Bacterial Biotransformation	Compound metabolized
CC1=C(CC(=O)O)c2cc(F)ccc2/C1=C\c1ccc([S+](C)[O-])cc1 (stereo unspecified)	Bacterial Biotransformation	Compound metabolized
CCN(C)C(=O)Oc1cccc([C@H](C)N(C)C)c1.O=C(O)C(O)C(O)C(=O)O [RIVASTIGMINE TARTRATE]	Bacterial Biotransformation	Compound NOT metabolized
CCN(CC)CCNC(=O)c1ccc(NC(C)=O)cc1 [ACECAINIDE]	Bacterial Biotransformation	Compound NOT metabolized
CCOc1cc(CC(=O)N[C@@H](CC(C)C)c2ccccc2N2CCCCC2)ccc1C(=O)O [REPAGLINIDE]	Bacterial Biotransformation	Compound metabolized
CC12CC3CC(C)(C1)CC(N)(C3)C2 [MEMANTINE]	Bacterial Biotransformation	Compound NOT metabolized
CN(C)CCc1c[nH]c2ccc(CS(=O)(=O)N3CCCC3)cc12	Bacterial Biotransformation	Compound NOT metabolized
CN[C@H]1CC[C@@H](c2ccc(Cl)c(Cl)c2)c2ccccc21	Bacterial Biotransformation	Compound metabolized
CCOC(=O)[C@H](CCc1ccccc1)N[C@@H](C)C(=O)N1Cc2ccccc2C[C@H]1C(=O)O	Bacterial Biotransformation	Compound metabolized
